pIC50: −log10 of the molar value.
Dear all, this message contains pIC50 results, target or system human DNA polymerase β (hpol β) (Homo sapiens, UniProt P06746).

C/C(=C\CC[C@]1(C)CCc2cc(O)cc(C)c2O1)CC/C=C(\C)C(=O)O [Compound 10a]; 4.28

Ask | pIC50 lookup needed for C/C(=C\CC[C@]1(C)CCc2cc(O)cc(C)c2O1)CC/C=C/C(=O)O [Compound 10b] , thanks.
Reply | 4.31

Ask | What do we get for COC(=O)/C(C)=C/CC/C(C)=C/CC[C@]1(C)CCc2cc(O)cc(C)c2O1 [Compound 13a] ?
Reply | < 3.92

Ask | What do we get for COC(=O)/C=C/CC/C(C)=C/CC[C@]1(C)CCc2cc(O)cc(C)c2O1 [Compound 13b] ?
Reply | < 3.92

Ask | What do we get for COC(=O)/C=C/CC/C(C)=C/CC/C(C)=C/CC[C@]1(C)CCc2cc(O)cc(C)c2O1 [Compound 14b] ?
Reply | < 3.92

Ask | What do we get for COc1cc(C)c2c(c1)CC[C@@](C)(CC/C=C(\C)CC/C=C(\C)CC/C=C(\C)C(=O)O)O2 [Compound 16] ?
Reply | 4.51

Ask | What do we get for C/C(=C\CC[C@]1(C)CCc2cc(O)cc(C)c2O1)C(=O)O [Compound 9a] ?
Reply | < 3.92

Ask | What do we get for COC(=O)/C(C)=C/CC[C@]1(C)CCc2cc(O)cc(C)c2O1 [Compound 12a] ?
Reply | < 3.92

Ask | What do we get for COC(=O)/C=C/CC[C@]1(C)CCc2cc(O)cc(C)c2O1 [Compound 12b] ?
Reply | < 3.92

Ask | What do we get for COC(=O)/C(C)=C/CC/C(C)=C/CC/C(C)=C/CC[C@]1(C)CCc2cc(O)cc(C)c2O1 [Compound 14a] ?
Reply | < 3.92
